# Test system: RPMI-8226 leukemia
# assayNotes: NCI-60 one-dose screen, 48 h (100 = growth as untreated, 0 = no growth, -100 = all killed)
# conditionSet: 10 µM unless noted
Compounds without any hit were thinned out: in the full panel of roughly 83,000, 20% have a hit.
endpointLabel: growth (%)
One number for each entry, in %.

In the examples that follow, each entry is paired with its recorded growth.
Given the molecule Nc1cccc2c1CN(C1CCC(=O)NC1=O)C2=O (stereo not given) and test system RPMI-8226 leukemia, the measured growth is 109

Given the molecule COc1ccc(-c2nc3sccn3c2-c2ccnc(NCCNS(=O)(=O)c3ccc(C(F)(F)F)cc3)n2)cc1 and test system RPMI-8226 leukemia, the measured growth is 8.83

Given the molecule COc1cc(OC)c(C(=O)/C=C/c2cccc(C#N)c2)c(OC)c1 and test system RPMI-8226 leukemia, the measured growth is 1.52

Report growth for each item below.
1. CCN1C(=O)N(CC)C2C1NN=c1s/c(=C\c3ccccn3)c(=O)n12 (stereo not given)
2. C=CCOc1cccc(/C=C/C(=O)c2sc(Nc3cccnc3)nc2C)c1
3. COc1ccc(/C(=N/O)c2cc(OC)c(OC)c(OC)c2)c(OC)c1N
4. COc1ccc(Cl)cc1NC(N)=S

Completion:
[22.5, 23.1, 32, 100]

Report growth for each item below.
1. COc1cc(-n2nc(C(=O)Nc3ccc(C(=O)O)cc3)nc2-c2ccccc2)cc(OC)c1OC
2. CC(C)N(Cc1ccc(CN(C(=O)CCl)C(C)C)cc1)C(=O)CCl
3. CCCCCCCCCCCCCCCCCCOc1cccc(CCOP(=O)(O)OCC[N+](C)(C)C)c1
4. COc1cc(-c2csc(NC(=O)Nc3ccc(Cl)cc3Cl)n2)cc(OC)c1OC
5. COc1ncc(-c2ccc3ncnc(Nc4cccc(Cl)c4)c3c2)cc1NS(=O)(=O)CCN1CCOCC1
6. NCCSC(c1ccccc1)(c1ccccc1)c1ccccc1
7. COc1ccc(Cn2cc(COc3cc(/C=C/C(=O)c4cc(OC)c(OC)c(OC)c4)ccc3OC)nn2)cc1

Completion:
108
1.57
86.9
30
12.7
-24.7
-2.32

Given the molecule Clc1nc(Cl)c2ncn(C/C=C/Cn3cnc4c(Cl)nc(Cl)nc43)c2n1 and test system RPMI-8226 leukemia, the measured growth is -17.3

====

# Tested on: EKVX NSCLC
# assayNotes: NCI-60 one-dose screen, 48 h
# conditionSet: 10 µM unless noted
# Procedure: Growth inhibition of the EKVX human Non-Small Cell Lung tumor cell line is measured as a screen for anti-cancer activity. Cells are grown in 96 well plates and exposed to the test compound for 48 hours. Compounds are tested at a single concentration, which is 10^-5 M for most compounds. The reported endpoint is percent growth (GI% or GIPRCNT), where numbers from 0 - 100% represent growth inhibition, and numbers from -100% - 0 represent cell death. […]
Compounds without any hit were thinned out: in the full panel of roughly 83,000, 20% have a hit. Activity calls are given as the source filed them. Rule for the calls: active = growth percent below 10; inactive = the rest.
Give one outcome, nothing more. List: TRUE = active, FALSE = inactive

Illustrative cases are given below, each with its answer.
Prompt: Assay outcome for C=C1C(=O)O[C@H]2[C@H]1CC/C(COC(=O)NCCc1cccc(OC)c1)=C\CC[C@@]1(C)O[C@@H]21 : what was it?
Completion: FALSE

Prompt: Assay outcome for CCCCCCCC/C=C\CCCCCCCCOc1ccccc1CCOP(=O)(O)OCC[N+](C)(C)C : what was it?
Completion: FALSE

Prompt: Assay outcome for COc1ccc(NC(=O)/N=c2\oc3c(OC)cccc3cc2-c2cc3ccccc3[nH]2)cc1 : what was it?
Completion: FALSE

Prompt: Assay outcome for C=C1C(=O)O[C@H]2[C@H]1CC/C(COC(=O)NCc1ccc(OC)cc1)=C\CC[C@@]1(C)O[C@@H]21 : what was it?
Completion: FALSE

Prompt: Assay outcome for O=C1OC(c2ccccc2)=N/C1=C\c1ccc([N+](=O)[O-])cc1 : what was it?
Completion: FALSE

***
Prompt: Assay outcome for COc1cc(C2CC(c3c(C)[n+]([O-])c4ccccc4[n+]3[O-])=NN2)cc(OC)c1OC (configuration not stated) : what was it?
Completion: FALSE
